The reported measurements were obtained from the supplement of paper PMC7877785.

Assay: self-splicing fitness, log relative to wild type (ln ratio); higher = more splicing; Tetrahymena group I intron in knt gene, E. coli kanamycin selection, DiMSum; sequences stand for … in CUCUCU…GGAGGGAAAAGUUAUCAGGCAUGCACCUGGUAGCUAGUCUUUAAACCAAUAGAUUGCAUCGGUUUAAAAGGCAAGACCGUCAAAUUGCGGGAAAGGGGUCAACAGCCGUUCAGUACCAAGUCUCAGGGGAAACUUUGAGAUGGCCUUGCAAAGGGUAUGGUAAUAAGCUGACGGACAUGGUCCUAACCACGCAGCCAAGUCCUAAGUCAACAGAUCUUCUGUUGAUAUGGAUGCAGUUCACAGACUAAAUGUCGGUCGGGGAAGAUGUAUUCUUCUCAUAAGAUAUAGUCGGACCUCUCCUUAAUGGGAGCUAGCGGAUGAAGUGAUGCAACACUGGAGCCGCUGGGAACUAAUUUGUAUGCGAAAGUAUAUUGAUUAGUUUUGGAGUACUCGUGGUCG;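 further: selection with 25 µg/mL kanamycin versus none on LB agar overnight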
Settings: 30 °C
Please respond with reported self-splicing fitness (ln) for every item in the list.
Numbers only.

GGUCAGCAAUAUUACGUUUA	-1.23

Provide reported self-splicing fitness (ln) for each item, in the same order as listed.
1. GCAGAGCAAUAUUACGUAGC
2. CCGUAGCAAUAUUACGGCAU
3. GAAUAGCAAUAUUACGGGGC
4. CACUAGCAAUAUUACGCUGA
5. CUUUAGCAAUAUUACGGUCA
6. UAAUAGCAAUAUUACGGUCU
7. CGUGAGCAAUAUUACGAGGU
8. AUUCAGCAAUAUUACGGGGA

## Result
1. -3.31
2. -3.15
3. -3.15
4. -2.58
5. -2.41
6. -2.75
7. -0.426
8. -1.93

###

Please respond with reported self-splicing fitness (ln) for every item in the list.
Assay: self-splicing fitness, log relative to wild type (ln ratio); higher = more splicing; Tetrahymena group I intron in knt gene, E. coli kanamycin selection, DiMSum; sequences stand for … in CUCUCU…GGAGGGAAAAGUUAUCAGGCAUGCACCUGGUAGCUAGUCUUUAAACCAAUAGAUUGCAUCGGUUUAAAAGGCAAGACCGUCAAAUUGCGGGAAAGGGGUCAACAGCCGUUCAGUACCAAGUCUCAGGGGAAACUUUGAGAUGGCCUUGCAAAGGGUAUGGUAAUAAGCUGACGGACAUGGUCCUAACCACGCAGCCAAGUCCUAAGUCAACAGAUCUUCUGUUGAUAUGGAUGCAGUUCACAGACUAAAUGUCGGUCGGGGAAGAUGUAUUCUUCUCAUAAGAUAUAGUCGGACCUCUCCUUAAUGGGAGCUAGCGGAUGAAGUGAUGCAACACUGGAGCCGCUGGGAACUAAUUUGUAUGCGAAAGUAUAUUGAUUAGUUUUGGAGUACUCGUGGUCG
Conditions: 30 °C
Answers are plain numbers.

Completed entries (count: 4):
AGCGAGCAAUAUUACGUACA	-2.08
CAUAAGCAAUAUUACGUCAU	-3.67
CCGAAGCAAUAUUACGAUAA	-2.83
UUGUAGCAAUAUUACGCUCG	-0.29

Provide reported self-splicing fitness (ln) for each item, in the same order as listed.
1. UGGCAGCAAUAUUACGUAGU
2. GUGAAGCAAUAUUACGAAGC
3. CUCUAGCAAUAUUACGUGAC

## Result
1: -2.99; 2: -2.06; 3: -4.2

Provide reported self-splicing fitness (ln) for each item, in the same order as listed.
1. AUCGAGCAAUAUUACGAGCA
2. CUGUAGCAAUAUUACGUGAU

## Result
[-1.2, -1.56]
